Test: xn = mol fraction of the nth substance listed
Settings: 313.15 K; 100 kPa; Liquid; Cone and plate viscometry; x1 = 0.9
ASSAY_READOUT: viscosity (mPa·s)

{"COMPOUND": "CCCCCCn1cc[n+](C)c1.O=[N+]([O-])c1cn[n-]c1 [1-hexyl-3-methylimidazolium 4-nitropyrazolide] + CCCCCCCCCCCCCC[P+](CCCCCC)(CCCCCC)CCCCCC.O=S(=O)([N-]S(=O)(=O)C(F)(F)F)C(F)(F)F", "OBSERVED_RESULT": 149}
{"COMPOUND": "CCCCCCCC[P+](CC)(CC)CC.O=[N+]([O-])c1cn[n-]c1 [triethyloctylphosphonium 4-nitropyrazolide] + CCCCCCn1cc[n+](C)c1C.O=S(=O)([N-]S(=O)(=O)C(F)(F)F)C(F)(F)F", "OBSERVED_RESULT": 119}
{"COMPOUND": "CCCCCCn1cc[n+](C)c1.O=[N+]([O-])c1cn[n-]c1 [1-hexyl-3-methylimidazolium 4-nitropyrazolide] + CCCCCCCC[P+](CC)(CC)CC.O=S(=O)([N-]S(=O)(=O)C(F)(F)F)C(F)(F)F", "OBSERVED_RESULT": 122}
{"COMPOUND": "CCCCCCn1cc[n+](C)c1.N#Cc1ccc[n-]1 [1-hexyl-3-methylimidazolium 2-cyanopyrrolide] + CCCCCCCCCCCCCC[P+](CCCCCC)(CCCCCC)CCCCCC.O=S(=O)([N-]S(=O)(=O)C(F)(F)F)C(F)(F)F", "OBSERVED_RESULT": 101}

---

Items are presented alongside their recorded mass density.
Details: 338.15 K; 100 kPa; Liquid; Vibrating tube method

{"MOLECULE": "CCn1cc[n+](C)c1.O=S(=O)([N-]S(=O)(=O)C(F)(F)F)C(F)(F)F", "mass density, kg/m3": 1479.3}
{"MOLECULE": "CCCCCCCC[P+](CC)(CC)CC.O=[N+]([O-])c1cn[n-]c1 [triethyloctylphosphonium 4-nitropyrazolide]", "mass density, kg/m3": 1007.9}
{"MOLECULE": "CCCCCCn1cc[n+](C)c1C.O=S(=O)([N-]S(=O)(=O)C(F)(F)F)C(F)(F)F", "mass density, kg/m3": 1324.5}
{"MOLECULE": "CCCCCC[n+]1ccn(C)c1.O=S(=O)([N-]S(=O)(=O)C(F)(F)F)C(F)(F)F", "mass density, kg/m3": 1335.8}

Hey, just so you know, these numbers are from the NIST ThermoML archive (doi:10.1021/acs.jced.7b00221).
